# EXPERIMENTAL PROTOCOL: Study 1: cloxacillin in milk after intramammary infusion of Injector 1A
# Format: in vivo, cows
# COND: bovine, milk; single dose, micronised form in an aqueous base; read-out: time to high initial peak of antibiotic
TEST READOUT: Tmax

Ask | Looking for the measured Tmax of `Cc1onc(-c2ccccc2Cl)c1C(=O)N[C@@H]1C(=O)N2[C@@H]1SC(C)(C)[C@@H]2C(=O)O` , can you help?
Reply | ≤ 30 min
